# conditions: pH7
Non-standard residues stand in square brackets, D forms with d. Residues, ends and D or L forms follow the SMILES beside them. *: point of attachment. PEG4 = NCCOCCOCCOCCOCCC(=O)O; Butyryl = CCCC(=O)*
reported endpoint: solubility

The compound identified as CCCC(=O)OC[C@H](NC(=O)[C@H](CO)NC(=O)CN)C(=O)N[C@@H](Cc1ccccc1)C(=O)N[C@@H](CC(C)C)C(=O)NCCOCCOCCOCCOCCC(=O)N[C@@H](CS)C(N)=O [PEG-Ghr4, GSS(butyryl)FL-PEG4-C-NH2] (H-GSS(Butyryl)FL[PEG4]C-NH2) registered its solubility at > 1000 µg/mL

====

# method: physchem
# conditions: water, pH 7
Non-standard residues stand in square brackets, D forms with d. Residues, ends and D or L forms follow the SMILES beside them. *: point of attachment. PEG4 = NCCOCCOCCOCCOCCC(=O)O; Octanoyl = CCCCCCCC(=O)*; Butyryl = CCCC(=O)*
reported endpoint: solubility

CC(C)C[C@H](NC(=O)[C@H](CCCCN)NC(=O)[C@H](C)NC(=O)[C@@H]1CCCN1C(=O)[C@@H]1CCCN1C(=O)[C@H](CCCCN)NC(=O)[C@H](CCCCN)NC(=O)[C@H](CO)NC(=O)[C@H](CCC(=O)O)NC(=O)[C@H](CCCCN)NC(=O)[C@H](CCCNC(=N)N)NC(=O)[C@H](CCC(N)=O)NC(=O)[C@H](CCC(N)=O)NC(=O)[C@@H](N)CS)C(=O)N[C@@H](CCC(N)=O)C(=O)N1CCC[C@H]1C(=O)N[C@@H](CCCNC(=N)N)C(N)=O [Ghr2] ... > 1000 µg/mL
CCCCCCCC(=O)OC[C@H](NC(=O)[C@H](CO)NC(=O)CN)C(=O)N[C@@H](Cc1ccccc1)C(=O)N[C@@H](CC(C)C)C(=O)NCCOCCOCCOCCOCCC(=O)N[C@@H](CS)C(N)=O [PEG-Ghr5, GSS(octanoyl)FL-PEG4-C-NH2] (H-GSS(Octanoyl)FL[PEG4]C-NH2) ... ~400 µg/mL
CCCC(=O)OC[C@H](NC(=O)[C@H](CO)NC(=O)CN)C(=O)N[C@@H](Cc1ccccc1)C(=O)N[C@@H](CC(C)C)C(=O)N[C@@H](CS)C(N)=O [Ghr4, GSS(butyryl)FLC-NH2] (H-GSS(Butyryl)FLC-NH2) ... < 100 µg/mL

Consider the additional compound presented here.
GET /value?item= CCCC(=O)OC[C@H](NC(=O)[C@H](CO)NC(=O)CN)C(=O)N[C@@H](Cc1ccccc1)C(=O)N[C@@H](CC(C)C)C(=O)N[C@@H](CO)C(=O)N1CCC[C@H]1C(=O)N[C@@H](CCC(=O)O)C(=O)N[C@@H](Cc1c[nH]cn1)C(=O)N[C@@H](CCC(N)=O)C(=O)N[C@@H](CS)C(N)=O [Ghr1] &field=solubility returns > 1000 µg/mL
